# TARGET OR SYSTEM: Cytochrome P450 1A2 (Homo sapiens) (UniProt P05177)
# Sequence (P05177 whole entry, looked up): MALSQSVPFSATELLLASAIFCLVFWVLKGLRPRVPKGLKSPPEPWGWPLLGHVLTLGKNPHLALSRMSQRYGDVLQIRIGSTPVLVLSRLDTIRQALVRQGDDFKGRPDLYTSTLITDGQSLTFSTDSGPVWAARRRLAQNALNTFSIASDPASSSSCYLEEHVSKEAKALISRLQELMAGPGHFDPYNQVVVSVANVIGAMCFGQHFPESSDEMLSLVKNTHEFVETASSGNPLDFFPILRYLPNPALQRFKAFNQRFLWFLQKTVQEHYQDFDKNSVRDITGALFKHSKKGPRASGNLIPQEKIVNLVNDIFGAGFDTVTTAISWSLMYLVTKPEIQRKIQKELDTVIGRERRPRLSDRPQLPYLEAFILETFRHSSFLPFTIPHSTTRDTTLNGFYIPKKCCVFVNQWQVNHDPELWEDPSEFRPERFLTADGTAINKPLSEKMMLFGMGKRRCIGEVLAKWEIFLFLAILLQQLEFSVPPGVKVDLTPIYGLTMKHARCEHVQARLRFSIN
# ASSAY COMMENT: Cytochrome P450 Family 1 Subfamily A Member 2 (CYP1A2) small molecule antagonists: luciferase reporter qHTS assay (AID 1671199); note: nearly all actives have a fitted effect of over 50% in size
# APPLIED CONDITIONS: P450-Glo CYP1A2 enzyme, luciferin luminescence, 1 h; series mostly up to 53 µM
Results filed as inconclusive are left out. Active and inactive are the calls of the source. Calls come from the whole dose curve; as a rule, active = well fitted inhibition curve with a large enough effect in the repeat runs; inconclusive = weak or mixed curves; inactive = no such curve, though single readings can be large or run the other way.
Would you mind answering with one of these outcomes? active, inactive

Query block: Answer briefly: the call reported for CC(C)(C)c1cc(CCC(=O)NN)cc(C(C)(C)C)c1O in this assay.
Result block: active

Query block: Answer briefly: the call reported for COC(=O)c1ccccc1C(=O)c1ccc(OCCN2CCCCC2)cc1 in this assay.
Result block: inactive

Query block: Answer briefly: the call reported for C=CCCCCCCCCCCCC in this assay.
Result block: inactive

Query block: Answer briefly: the call reported for Cc1cccc(C)c1OCC(C)N (stereo not given) in this assay.
Result block: active

Query block: Answer briefly: the call reported for CC(=O)N[C@@H](CCC(=O)O)C(=O)O in this assay.
Result block: inactive

Query block: Answer briefly: the call reported for COc1ccc(S(=O)(=O)N2c3ccc(Cl)cc3[C@@](O)(c3ccccc3Cl)[C@H]2C(=O)N2CCC[C@@H]2C(N)=O)cc1OC in this assay.
Result block: inactive

Query block: Answer briefly: the call reported for O=C(CCN1CCN(CCO)CC1)N1c2ccccc2Sc2ccc(C(F)(F)F)cc21 in this assay.
Result block: inactive

Query block: Answer briefly: the call reported for O=C(Nc1ccc(Cl)c(Cl)c1)C1CC1 in this assay.
Result block: active

Query block: Answer briefly: the call reported for Cc1[nH]cnc1-c1ccc(Cl)cc1 in this assay.
Result block: active

Query block: Answer briefly: the call reported for C=C(C)C(=O)OCC(C)(C)COC(=O)C(=C)C in this assay.
Result block: inactive

Query block: Answer briefly: the call reported for N[C@@H](COP(=O)(O)O)C(=O)O in this assay.
Result block: inactive

Query block: Answer briefly: the call reported for Cc1cccc(C)c1NC(=O)c1ccccc1C(=O)O in this assay.
Result block: inactive

Query block: Answer briefly: the call reported for NNc1nnc(NN)c2ccccc12 in this assay.
Result block: active

Query block: Answer briefly: the call reported for CCCCCCOC(=O)CC in this assay.
Result block: inactive

Query block: Answer briefly: the call reported for CCOCCOCCOCC in this assay.
Result block: inactive

----------
# ASSAY COMMENT: qHTS assay for identifying genotoxic compounds that show differential cytotoxicity against isogenic chicken DT40 cell lines with known DNA damage response pathways - wild type cell line (AID 743012); note: nearly all actives have a fitted effect of over 60% in size
# APPLIED CONDITIONS: DT40 wild type chicken cells viability, CellTiter-Glo, 40 h; series mostly up to 68.4 µM
Results filed as inconclusive are left out. Active and inactive are the calls of the source. Calls come from the whole dose curve; as a rule, active = well fitted cell-killing curve with a large enough effect in the repeat runs; inconclusive = weak or mixed curves, or effect the other way; inactive = no such curve, though single readings can be large or run the other way.
Would you mind answering with one of these outcomes? y for active, n for inactive

Query block: Answer briefly: the call reported for COCCOC(=O)C1=C(C)NC(C)=C(C(=O)OC(C)C)C1c1cccc([N+](=O)[O-])c1 (centres undefined) in this assay.
Result block: y

Query block: Answer briefly: the call reported for CC(=O)Nc1cccc(C)c1 in this assay.
Result block: n

Query block: Answer briefly: the call reported for CCN1CCc2nc(N)oc2CC1 in this assay.
Result block: n

Query block: Answer briefly: the call reported for BrCCCCCBr in this assay.
Result block: n

----------
# TARGET OR SYSTEM: Cytochrome P450 1A2 (Homo sapiens) (UniProt P05177)
# ASSAY COMMENT: Cytochrome P450 Family 1 Subfamily A Member 2 (CYP1A2) small molecule antagonists: luciferase reporter qHTS assay (AID 1671199); note: nearly all actives have a fitted effect of over 50% in size
# APPLIED CONDITIONS: P450-Glo CYP1A2 enzyme, luciferin luminescence, 1 h; series mostly up to 53 µM
Results filed as inconclusive are left out. Active and inactive are the calls of the source. The call rests on the fitted dose curve; in most records, active means well fitted inhibition curve with a large enough effect in the repeat runs; inconclusive means weak or mixed curves; inactive means no such curve, though single readings can be large or run the other way.
Would you mind answering with one of these outcomes? label 1 for active, label 0 for inactive

Query block: Answer briefly: the call reported for CC(CC=O)CCCC(C)(C)O (stereo unspecified) in this assay.
Result block: label 0

Query block: Answer briefly: the call reported for CCCOC(=O)C(C)O (stereo unspecified) in this assay.
Result block: label 1

Query block: Answer briefly: the call reported for Nc1nnc(-c2cccc(Cl)c2Cl)c(N)n1 in this assay.
Result block: label 0

Query block: Answer briefly: the call reported for C[C@@H](Oc1ccc(CNC(=O)c2cccnc2Oc2ccc3c(c2)OCO3)c(F)c1)C(=O)O in this assay.
Result block: label 0

Query block: Answer briefly: the call reported for CCOC(=O)c1ncn2c1CN(C)C(=O)c1cc(F)ccc1-2 in this assay.
Result block: label 0

Query block: Answer briefly: the call reported for COc1cc2c(cc1OC)C(=O)CC2 in this assay.
Result block: label 1

Query block: Answer briefly: the call reported for O=C(OCC1(COC(=O)c2cccnc2)CCCC(COC(=O)c2cccnc2)(COC(=O)c2cccnc2)C1O)c1cccnc1 in this assay.
Result block: label 0

Query block: Answer briefly: the call reported for CCOC(=O)/C=C/c1ccccc1 in this assay.
Result block: label 1

Query block: Answer briefly: the call reported for C[C@@H](O)[C@H]1C(=O)N2C(C(=O)O)=C(SCCN=CN)C[C@H]12 in this assay.
Result block: label 0

Query block: Answer briefly: the call reported for CC(=O)c1sc(C)nc1C in this assay.
Result block: label 0

Query block: Answer briefly: the call reported for O=C(O)c1ccc(Cl)cc1Cl in this assay.
Result block: label 0

Query block: Answer briefly: the call reported for Oc1ccccc1-c1nnco1 in this assay.
Result block: label 1

Query block: Answer briefly: the call reported for CCCC/C=C/C=C\C=O in this assay.
Result block: label 0

Query block: Answer briefly: the call reported for CC(C)NCC(O)COc1ccc(COCCOC(C)C)cc1 (stereo unspecified) in this assay.
Result block: label 0

Query block: Answer briefly: the call reported for O=C1CC(c2ccc(Cl)cc2)CC(=O)N1 in this assay.
Result block: label 1

Query block: Answer briefly: the call reported for O=C(OCC(COC(=O)c1cccnc1)(COC(=O)c1cccnc1)COC(=O)c1cccnc1)c1cccnc1 in this assay.
Result block: label 0

Query block: Answer briefly: the call reported for CCCN1C[C@H](CSC)C[C@@H]2c3cccc4[nH]cc(c34)C[C@H]21 in this assay.
Result block: label 0

Query block: Answer briefly: the call reported for COc1cc(C(=S)N2CCOCC2)cc(OC)c1OC in this assay.
Result block: label 0

Query block: Answer briefly: the call reported for CC(C)CCCCOC(=O)c1ccccc1C(=O)OCCCCC(C)C in this assay.
Result block: label 1

Query block: Answer briefly: the call reported for Nc1ccc(S(=O)(=O)Nc2ccc(Cl)nn2)cc1 in this assay.
Result block: label 0

Query block: Answer briefly: the call reported for CC1COc2ccccc2N1 (stereo unspecified) in this assay.
Result block: label 1

Query block: Answer briefly: the call reported for CC1=CCC(C(C)C)=CC1 in this assay.
Result block: label 0

Query block: Answer briefly: the call reported for COc1ccc2c(c1OC)C(=O)O[C@@H]2[C@H]1c2c(cc3c(c2OC)OCO3)CCN1C in this assay.
Result block: label 0

Query block: Answer briefly: the call reported for COc1ccc(-c2cc(=O)c3c(O)cc(O[C@@H]4O[C@H](CO[C@@H]5O[C@@H](C)[C@H](O)[C@@H](O)[C@H]5O)[C@@H](O)[C@H](O)[C@H]4O)cc3o2)cc1O in this assay.
Result block: label 0

Query block: Answer briefly: the call reported for BrCc1cccc(Oc2ccccc2)c1 in this assay.
Result block: label 1

Query block: Answer briefly: the call reported for COCCc1ccc(OCC2CO2)cc1 (stereo unspecified) in this assay.
Result block: label 0

----------
# ASSAY COMMENT: qHTS assay to test for compound auto fluorescence at 590 nm (red) in HepG2 cell free culture (AID 720684); note: % is set by controls: 0 for no effect and ±100 for the full control effect
# APPLIED CONDITIONS: cell-free medium autofluorescence, red 540/590 nm; series mostly up to 91.3 µM
Calls of active or inactive are those of the source. Calls come from the whole dose curve; as a rule, active = well fitted curve in the direction sought with a large enough effect in the repeat runs; inconclusive = weak or mixed curves; inactive = flat fitted curve, though single readings scatter.
MEASURE NAME: fluorescence, % of Rose Bengal

Some solved cases for reference:
>>> result("CO[C@@H]1[C@@H](OC(N)=O)[C@@H](O)[C@H](Oc2ccc3c(O)c(NC(=O)c4ccc(O)c(CC=C(C)C)c4)c(=O)oc3c2C)OC1(C)C")
"0.235% [at 18.6 µM] (inactive)"
>>> result("c1ccc2nccnc2c1")
"inactive"
>>> result("C#CC(C)N(C)C(=O)Nc1ccc(Cl)cc1 (stereo not given)")
"inactive"
>>> result("Cc1cc(C(C)(C)C)c(O)c(C)c1CC1=NCCN1")
"inactive"
>>> result("CCOC(=O)CC(=O)c1ccccc1")
"inactive"

Query block: Using known records, supply fluorescence, % of Rose Bengal for COc1cc(C(=S)N2CCOCC2)cc(OC)c1OC
Result block: inactive

Query block: Using known records, supply fluorescence, % of Rose Bengal for CCCCNc1ccc(C(=O)OCCN(C)C)cc1
Result block: 0.315% [at 18.6 µM] (inactive)

Sourced from PubChem BioAssay (Tox21)
